- MEASUREMENT_PROTOCOL: PSAC antagonists in infected red cells, primary screen, cell-based, P. falciparum Indochina, OD700, 2 h (AID 1155);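 also: lysis reports solute entry through the parasite surface anion channel PSAC; channel blockers reduce lysis of infected cells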
- RUN_CONDITIONS: P. falciparum Indochina infected erythrocytes, osmotic lysis OD700, called active from +8 up or from −8 down
Calls of active or inactive are those of the source.
// classify into 1 for active, -1 for inactive

## Input Answer briefly: the call reported for `CC(C)N1C(=O)c2ccccc2[C@](C)(C(=O)NCc2ccccc2)[C@@H]1c1ccc(CO)cc1` in this assay.
## Output -1

## Input Check `C=CCNC(=O)[C@@H]1[C@H]2C(=O)O[C@H](c3ccccc3)[C@H](c3ccccc3)N2[C@H](c2ccccc2OCCO)[C@@]12C(=O)N(C(=O)OCCOC)c1ccc(C#CCNC(N)=O)cc12` too.
## Output -1

## Input Another molecule: `CN(C)CCCNC(=O)[C@@]1(C)c2ccccc2C(=O)N(Cc2cc(F)cc(C(F)(F)F)c2)[C@H]1c1ccc(CO)cc1`
## Output -1

## Input COc1cc2c(cc1O)C(C1CC1)N(Cc1cc3c(cc1Br)OCO3)CC2 (stereo not drawn) ?
## Output -1

## Input Same read-out for COc1ccc(NN2C(C(O)c3ccc([N+](=O)[O-])cc3)C=CC3C(=O)N(C4CCCCC4)C(=O)C32)cc1 (stereo not drawn) ?
## Output -1

## Input Next: `CCCC#C[Si](O[C@H](CC)c1cn([C@H](CO)Cc2ccccc2)nn1)(C(C)C)C(C)C`
## Output -1

## Input Query COc1ccc(C(O)C2C=CC3C(=O)N(c4ccccc4)C(=O)C3N2Nc2ccc(C(C)C)cc2)cc1OCc1ccccc1 (stereo not drawn) next
## Output -1

## Input Try this molecule too: N#Cc1ccc(NN2C(C(O)c3c(F)cccc3Cl)C=CC3C(=O)N(c4ccccc4)C(=O)C32)cc1 (stereo not drawn)
## Output -1

## Input What about this molecule? `C=CCOC(=O)[C@@H]1[C@H]2C(=O)O[C@H](c3ccccc3)[C@H](c3ccccc3)N2[C@H](c2ccc(OCCOC(=O)[C@@H]3C[C@@H]4C(=O)N5CCC[C@H]5C(=O)N4[C@@H]3c3ccc(O)cc3)cc2)[C@@]12C(=O)Nc1ccc(I)cc12`
## Output -1

## Input // repeat for `COCCOC(=O)N1C(=O)[C@@]2(c3cc(C#CCCO)ccc31)[C@H](C(=O)N1CCN(c3ncccn3)CC1)[C@H]1C(=O)O[C@H](c3ccccc3)[C@H](c3ccccc3)N1[C@@H]2c1ccccc1OCCO` and report
## Output -1

## Input # repeat for `CC(C)N1C(=O)[C@@]2(Cc3ccccc31)c1ccccc1C(=O)N(C1CCCCC1)[C@H]2c1ccc(CO)cc1`
## Output -1

## Input Now consider `C=CCN1C(=O)[C@@]2(O[C@@H](CCO)[C@H]([Si](C)(C)c3ccc(OC)cc3)[C@H]2C)c2cc(NC(=O)c3ccc(OC)cc3)ccc21` and answer again.
## Output -1

## Input Proceed to `COC(=O)[C@@]1(Cc2ccc(OC)cc2)[C@H]2c3cc(C(=O)N(C)C)n(CCN4CNCC4=O)c3C[C@H]2CN1C(=O)c1ccccc1`
## Output -1

## Input Field entry: `COCCOC(=O)N1C(=O)[C@@]2(c3cc(C#CCNC(N)=O)ccc31)[C@H](C(=O)NC[C@H](O)c1ccccc1)[C@H]1C(=O)O[C@H](c3ccccc3)[C@H](c3ccccc3)N1[C@@H]2c1ccccc1OCCO`
## Output -1

## Input How about `C=CCN1C(=O)[C@]2(O[C@H](CCO)[C@@H]([Si](C)(C)c3ccc(OC)cc3)[C@@H]2C)c2cc(N3CCCCC3=O)ccc21` ?
## Output -1

## Input What would you report for `COc1ccc([C@H]2C[C@H]3C(Br)=C[C@@H]2C(=O)[C@]32CO2)cc1` ?
## Output -1

## Input Record: `O=C1[C@H]2C=C(Br)[C@H](C[C@@H]2c2ccccc2)[C@@]12CO2`
## Output -1

## Input Record: `C=C(CCCC)C(=O)CC[C@@H](OC(=O)c1cccnc1)c1ccc(CO)o1`
## Output -1

## Input And `Cc1ccc(S[C@]2(C(=O)NCC(F)(F)F)CC(=O)N(C(C)C)[C@@H]2c2ccc(CO)cc2I)cc1` ?
## Output -1

## Input Try this molecule too: `COc1cc2c(cc1O)C=[N+](Cc1cccc(OC(F)(F)F)c1)CC2`
## Output -1

## Input What do you have for CC(C)c1ccc(NN2C(C(O)c3cc(C(F)(F)F)cc(C(F)(F)F)c3)C=CC3C(=O)N(c4ccccc4)C(=O)C32)cc1 (stereo not drawn) ?
## Output -1

## Input Can you check C#CCN(Cc1ccccc1Br)C(/C=C/c1ccccc1)CO (stereo not drawn) next?
## Output -1

## Input And what about the molecule `COCCOC(=O)N1C(=O)[C@@]2(c3cc(C#Cc4ccc(OC)cc4)ccc31)[C@H](C(N)=O)[C@H]1C(=O)O[C@H](c3ccccc3)[C@H](c3ccccc3)N1[C@@H]2c1ccccc1OCCO` ?
## Output -1

## Input One more molecule: `COCCCNC(=O)[C@@]1(Cc2ccccc2N=[N+]=[N-])N=C(c2ccc(OCCCO)cc2)O[C@H]1c1ccccc1N=[N+]=[N-]`
## Output 1

## Input Again, but for O=C1OCCC=C[C@H]2OC34C=CCN(CCN5CCOCC5)C(=O)[C@H]3N(CCCCCCO)C(=O)[C@@H]4C12 (stereo partly drawn)
## Output -1

## Input Quick one: `C[N+](C)(C)CCCCNC(=O)[C@H]1C[C@H]2C(=O)N[C@@H](Cc3ccccc3)C(=O)N2[C@H]1c1ccc(O)cc1`
## Output -1

## Input Here is the next molecule: `COC(=O)c1c(CC[C@@H](CO)NC(=O)N[C@@H](C)Cn2cc(C3(O)CCCCC3)nn2)oc(C(C)=O)c1C(=O)OC`
## Output -1

## Input Now consider `COc1ccc(C(=O)Nc2ccc(CN3C(=O)[C@@]4(O[C@@H](CC(=O)N5CCC[C@H]5CO)[C@H]([Si](C)(C)c5ccc(OC)cc5)[C@H]4C)c4ccccc43)cc2)cc1` .
## Output -1
